From: patent US11840535B2

# System: Ba/F3 Bcr-Abl T315I cells
# assay-explanation: Cell proliferation analysis, Ba/F3 Bcr-Abl T315I
# Type: cell-based
# condition-parameters: Mus musculus, BaF3, 72 h; 3 days, CellTiter-Glo
result-type: IC50

// worked examples, IC50 included
Cc1ccc(NC(=O)c2ccc(CN3CCN(C)CC3)c(C(F)(F)F)c2)cc1C#Cc1cn(C)c2ncnc(N)c12 [Example 19] ... ≤ 0.01 µM
CCn1cc(C#Cc2cc(C(=O)Nc3ccc(CN(C)C)c(C(F)(F)F)c3)ccc2C)c2c(N)ncnc21 [Example 9] ... 0.01 to 0.02 µM

// moving on: another record for IC50
-- ask What IC50 value was documented for this molecule, CCn1cc(C#Cc2cc(NC(=O)c3cccc(C(F)(F)F)c3)ccc2C)c2c(N)ncnc21 [Example 17] ?
-- reply 0.01 to 0.02 µM
